# System: Leptosphaeria nodorum (LEPTNO)
# Test description: In vitro fungitoxicity of hydrazones with and without copper towards Leptosphaeria nodorum (Example 26)
# Assay type: cell-based
# Test conditions: copper-plus medium (CuCl2 10 μM); test compound Concn. 0.05 μg/mL; 72 h at 25° C.
The following compounds are shown together with reported LEPTNO % Inhn. Plus Copper Observed values.
Outcome measure: LEPTNO % Inhn. Plus Copper Observed (%)

Cc1ccc(C(=O)N/N=C/c2ccc(Cl)cc2O)cc1 [Example 388] | 98.1
COc1ccc(/C(C)=N/NC(=O)c2ccccc2O)c(O)c1 [Example 473] | 97.5
O=C(N/N=C/c1c(C(F)(F)F)ccc(Cl)c1O)c1ccc(Cl)cc1 [Example 452] | 100.0
Cc1ccc(C(=O)N/N=C/c2cccc(C(F)(F)F)c2O)c(O)c1 [Example 352] | 98.4
Cc1ccc(C(=O)N/N=C/c2c(C(F)(F)F)ccc(Cl)c2O)c(O)c1 [Example 457] | 100.0
C/C(=N\NC(=O)c1ccc(Br)cc1)c1cc(Cl)ccc1O [Example 512] | 97.8
COc1ccc(/C(C)=N/NC(=O)c2ccccc2Br)c(O)c1OC [Example 561] | 92.2
O=C(N/N=C/c1c(O)cccc1Cl)c1ccc(Cl)cc1 [Example 403] | 97.3
C/C(=N\NC(=O)c1ccc(C(F)(F)F)cc1)c1cc(Br)ccc1O [Example 518] | 97.4
C/C(=N\NC(=O)c1ccccc1Br)c1cc(F)cc(F)c1O [Example 582] | 97.8
Cc1ccc(C(=O)N/N=C/c2cc(Cl)cc(C(F)(F)F)c2O)c(O)c1 [Example 386] | 98.4
O=C(N/N=C/c1cccc(C(F)(F)F)c1O)c1ccccc1C(F)(F)F [Example 353] | 94.8
O=C(N/N=C(/c1ccccc1O)C(F)(F)F)c1ccccc1 [Example 591] | 9.9
C/C(=N\NC(=O)c1ccc(Br)cc1)c1ccccc1O [Example 458] | 96.6
COc1ccc(C(=O)N/N=C(\C)c2ccc(Cl)cc2O)cc1 [Example 459] | 96.9
O=C(N/N=C/c1c(Cl)ccc(Cl)c1O)c1ccccc1O [Example 372] | 97.4
O=C(N/N=C/c1cc(C(F)(F)F)cc(Cl)c1O)c1ccccc1C(F)(F)F [Example 330] | 92.9
C/C(=N\NC(=O)c1cccc(Cl)c1)c1cccc(Cl)c1O [Example 497] | 98.1
Cc1cccc(C(=O)N/N=C/c2c(C(F)(F)F)ccc(Cl)c2O)c1 [Example 447] | 96.6
O=C(N/N=C/c1cccc(Cl)c1O)c1ccccc1C(F)(F)F [Example 432] | 95.9

---

# Tested on: Leptosphaeria nodorum (LEPTNO)
# Test description: In vitro fungitoxicity of hydrazones with and without copper towards Leptosphaeria nodorum (Example 26)
# Format: cell-based
# Test conditions: copper-plus medium (CuCl2 10 μM); test compound Concn. 0.05 μg/mL; 72 h at 25° C.
Outcome measure: LEPTNO % Inhn. Plus Copper Observed

C/C(=N\NC(=O)c1ccc(C)cc1)c1cc(F)cc(F)c1O [Example 575] | 98.1%
O=C(N/N=C/c1c(O)cccc1C(F)(F)F)c1ccccc1 [Example 297] | 96.4%
O=C(N/N=C/c1cc(Cl)cc(Br)c1O)c1cccc(F)c1 [Example 414] | 97.9%
CC/C(=N\NC(=O)c1ccccc1)c1cc(Cl)cc(Cl)c1O [Example 590] | 98.6%
Cc1ccc(C(=O)N/N=C/c2cccc(Cl)c2O)c(O)c1 [Example 433] | 97.8%
CC(C)/C(=N\NC(=O)c1ccccc1)c1cc(Cl)cc(Cl)c1O [Example 588] | 96.3%
O=C(N/N=C/c1cc(C(F)(F)F)ccc1O)c1ccc(Cl)cc1 [Example 440] | 100.0%
CSc1cc(Br)c(O)c(/C=N/NC(=O)c2ccccc2)c1 [Example 298] | 95.0%
Cc1ccc(C(=O)N/N=C/c2cc(C(F)(F)F)cc(Cl)c2O)cc1 [Example 322] | 97.9%
Cc1ccc(C(=O)N/N=C/c2c(O)cccc2Cl)c(O)c1 [Example 408] | 79.7%
O=C(N/N=C/c1cccc(C(F)(F)F)c1O)c1ccccc1O [Example 351] | 96.1%
O=C(N/N=C/c1cc(C(F)(F)F)cc(C(F)(F)F)c1O)c1ccccc1O [Example 340] | 96.2%
COc1cc(O)c(/C(C)=N/NC(=O)c2cccc(Cl)c2)c(OC)c1 [Example 567] | 42.3%

---

Outcome measure: melting point

O=C(N/N=C/c1cc(Br)cc(Br)c1O)c1cc(Cl)cc(Cl)c1 | 267 to 269 °C
C/C(=N\NC(=O)c1ccccc1Br)c1cc(Cl)cc(Cl)c1O | 220 to 222 °C
O=C(N/N=C/c1cc(C(F)(F)F)cc(C(F)(F)F)c1O)c1ccc(Cl)cc1 | 233 to 236 °C
O=C(N/N=C/c1cccc(C(F)(F)F)c1O)c1ccccc1O | 230 to 234 °C
O=C(N/N=C/c1cc(Cl)cc(Br)c1O)c1cccc([N+](=O)[O-])c1 | 167 to 226 °C
C/C(=N\NC(=O)c1ccccc1)c1cccc(Cl)c1O | 202 to 203 °C
COc1ccc(/C(C)=N/NC(=O)c2ccc(C(F)(F)F)cc2)c(O)c1 | 251 to 252 °C
O=C(N/N=C/c1cc(Cl)cc(Br)c1O)c1ccc([N+](=O)[O-])cc1 | 237 to 250 °C
Cc1cccc(O)c1/C=N/NC(=O)c1ccccc1 | 212 to 213 °C
C/C(=N\NC(=O)c1cccc(C)c1)c1cc(C)ccc1O | 182 to 184 °C
COc1cccc(/C(C)=N/NC(=O)c2cccc(C)c2)c1O | 121 to 123 °C
Cc1ccc(C(=O)N/N=C/c2c(O)cccc2Cl)c(O)c1 | 273 to 276 °C
O=C(N/N=C/c1c(O)cccc1Cl)c1cccc(Cl)c1 | 250 to 253 °C
Cc1ccc(/C=N/NC(=O)c2ccccc2)c(O)c1 | 179 to 182 °C
O=C(N/N=C/c1cccc(Cl)c1O)c1ccc(F)cc1 | 194 to 198 °C
O=C(N/N=C/c1cc(Cl)cc(C(F)(F)F)c1O)c1ccc(Cl)cc1 | 232 to 234 °C
COc1cccc(C(=O)N/N=C(\C)c2cc(Cl)cc(Cl)c2O)c1O | 258 to 259 °C
O=C(N/N=C/c1ccc(Cl)cc1O)c1cccc(F)c1 | 218 to 222 °C
CC(C)c1ccc(C(=O)N/N=C/c2cc(Cl)cc(Cl)c2O)cc1 [Example 42] | 270 to 272 °C
COc1ccc(O)c(/C(C)=N/NC(=O)c2cccc(C)c2)c1 | 131 to 141 °C
C/C(=N\NC(=O)c1ccccc1Cl)c1cc(C)ccc1O | 154 to 158 °C
COc1ccc(C(=O)N/N=C(\C)c2cc(Cl)cc(Cl)c2O)cc1 | 226 to 227 °C
O=C(N/N=C/c1c(Cl)ccc(Cl)c1O)c1ccc(F)cc1 | 264 to 267 °C
C/C(=N\NC(=O)c1cccc(Cl)c1)c1cc(Cl)ccc1O | 244 to 249 °C
CC/C(=N\NC(=O)c1c(Cl)cccc1Cl)c1ccccc1O | 181 to 184 °C
O=C(N/N=C/c1cc(Cl)cc(C(F)(F)F)c1O)c1ccc([N+](=O)[O-])cc1 | 245 to 247 °C
C/C(=N\NC(=O)c1ccc(Cl)cc1)c1cc(Cl)ccc1O | 248 to 252 °C
O=C(N/N=C/c1c(O)cccc1Cl)c1cccc([N+](=O)[O-])c1 | 269 to 270 °C

---

# System: Phytophthora infestans
# Type: in vivo, Phytophthora infestans on tomato
# Test conditions: hydrazone 50 ppm + 50 μM CuCl2.2H2O, applied 24 h before inoculation, assessed 7 days after inoculation, tomato
Outcome measure: TLB % Control (%)

O=C(N/N=C/c1cc(Cl)cc(Br)c1O)c1cc(Cl)ccc1Cl | 94.5
O=C(N/N=C/c1c(O)ccc2ccccc12)c1ccccc1 | 67.8
O=C(N/N=C/c1cc(Br)ccc1O)c1ccc(Cl)cc1 | 15.8
Cc1ccc(C(=O)N/N=C(\CCc2ccccc2)c2ccccc2O)c(C)c1 [Example 35] | 0.0
O=C(N/N=C/c1cccc([N+](=O)[O-])c1O)c1ccccc1 | 55.9
CC(C)(C)N(/N=C/c1ccccc1O)C(=O)c1ccccc1 | 0.0
COc1ccccc1C(=O)N/N=C/c1cc(Cl)cc(Cl)c1O | 37.0
Cc1cccc(C(=O)N/N=C/c2cc(Br)cc(Br)c2O)c1 | 78.2
O=C(N/N=C/c1ccccc1O)c1cc(Cl)ccc1Br | 70.9
O=C(N/N=C/c1cc(Cl)cc(Cl)c1O)c1cccc(Oc2ccccc2)c1 | 72.7
O=C(N/N=C/c1cc(Cl)cc(Cl)c1O)c1cc(Cl)ccc1Cl | 60.6
CC/C(=N\NC(=O)c1ccccc1Cl)c1ccccc1O | 43.5
Cc1ccc(/C=N/NC(=O)c2ccccc2)c(O)c1 | 72.9
COc1ccc(C(=O)N/N=C/c2cc(Cl)cc(Cl)c2O)cc1OC | 51.5
O=C(Cc1ccccc1)N/N=C/c1cc(Br)cc(Br)c1O | 23.0
